Data provenance: patent US6716986B2

Target: human 5-HT2A (Homo sapiens, UniProt P28223)
Construct: expressed in transfected cells
Sequence (P28223 whole entry): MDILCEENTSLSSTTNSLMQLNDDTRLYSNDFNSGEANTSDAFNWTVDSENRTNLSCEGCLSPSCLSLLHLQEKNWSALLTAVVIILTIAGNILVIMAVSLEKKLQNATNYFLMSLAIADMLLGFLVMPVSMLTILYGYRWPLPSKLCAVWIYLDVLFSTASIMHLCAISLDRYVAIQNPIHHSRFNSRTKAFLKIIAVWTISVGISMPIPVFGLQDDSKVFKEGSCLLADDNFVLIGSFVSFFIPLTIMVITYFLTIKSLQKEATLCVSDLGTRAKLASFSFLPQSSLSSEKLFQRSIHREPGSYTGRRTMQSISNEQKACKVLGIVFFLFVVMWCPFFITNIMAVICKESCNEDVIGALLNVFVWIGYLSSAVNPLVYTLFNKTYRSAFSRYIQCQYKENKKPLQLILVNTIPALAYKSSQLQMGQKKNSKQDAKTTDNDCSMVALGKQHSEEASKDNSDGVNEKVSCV
Assay: In vitro inhibition of [3H]-ligand binding to human 5-HT2A receptor
Details: [3H]N-methyl spiperone, BHK cell membranes, 37° C.
Recorded Endpoint: Ki

Which Ki is reported for this compound? COc1c(OS(=O)(=O)O)cccc1C(O)C1CCN(CCc2ccc(F)cc2)CC1 (stereo not shown) 0.16 µM

---

Target: human D2L (Homo sapiens, UniProt P14416)
Construct: expressed in transfected cells
Sequence (P14416 whole entry): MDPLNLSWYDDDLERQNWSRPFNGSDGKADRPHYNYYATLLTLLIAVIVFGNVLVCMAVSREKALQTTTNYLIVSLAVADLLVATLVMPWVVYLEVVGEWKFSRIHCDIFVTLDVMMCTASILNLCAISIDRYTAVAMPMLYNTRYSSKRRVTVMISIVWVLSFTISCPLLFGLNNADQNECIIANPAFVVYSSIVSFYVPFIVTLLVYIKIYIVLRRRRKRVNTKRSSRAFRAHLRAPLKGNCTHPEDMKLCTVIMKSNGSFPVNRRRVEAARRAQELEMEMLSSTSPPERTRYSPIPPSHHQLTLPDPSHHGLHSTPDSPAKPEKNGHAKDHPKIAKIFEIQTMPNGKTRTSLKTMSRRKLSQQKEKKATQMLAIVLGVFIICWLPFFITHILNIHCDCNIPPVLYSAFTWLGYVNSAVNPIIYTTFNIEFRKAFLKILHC
Experiment: In vitro inhibition of [3H]-ligand binding to human D2L receptor
Conditions: [3H]N-methyl spiperone, CHO cell membranes, 37° C.; read-out: D2 (Ki μM)
Recorded Endpoint: Ki

Which Ki is reported for this compound? COc1c(OS(=O)(=O)O)cccc1C(O)C1CCN(CCc2ccc(F)cc2)CC1 (stereo not shown) [Example 1H] > 1 µM

---

Target: human α1A (Homo sapiens, UniProt P35348)
Construct: expressed in transfected cells
Sequence (P35348 whole entry): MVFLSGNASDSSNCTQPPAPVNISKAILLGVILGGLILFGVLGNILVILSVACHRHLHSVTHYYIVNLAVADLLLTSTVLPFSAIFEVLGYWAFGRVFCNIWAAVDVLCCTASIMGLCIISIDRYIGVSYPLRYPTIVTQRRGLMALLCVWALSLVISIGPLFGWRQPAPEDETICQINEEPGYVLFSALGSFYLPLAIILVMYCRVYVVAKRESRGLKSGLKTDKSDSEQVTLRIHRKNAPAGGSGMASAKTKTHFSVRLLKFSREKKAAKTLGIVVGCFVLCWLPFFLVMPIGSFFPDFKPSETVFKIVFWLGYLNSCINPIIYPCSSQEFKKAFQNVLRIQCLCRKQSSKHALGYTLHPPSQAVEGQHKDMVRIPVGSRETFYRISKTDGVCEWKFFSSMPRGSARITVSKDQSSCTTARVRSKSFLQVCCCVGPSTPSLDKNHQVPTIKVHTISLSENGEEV
Experiment: In vitro inhibition of [3H]-ligand binding to human α1A adrenergic receptor
Details: [3H]prazosin, CHO cell membranes
Recorded Endpoint: Ki

Which Ki is reported for this compound? COc1c(OS(=O)(=O)O)cccc1C(O)C1CCN(CCc2ccc(F)cc2)CC1 (stereo not shown) [Example 1H] > 1 µM

---

Molecular target: human 5-HT2c (Homo sapiens, UniProt P28335)
Construct: expressed in transfected cells
Sequence (P28335 33-458): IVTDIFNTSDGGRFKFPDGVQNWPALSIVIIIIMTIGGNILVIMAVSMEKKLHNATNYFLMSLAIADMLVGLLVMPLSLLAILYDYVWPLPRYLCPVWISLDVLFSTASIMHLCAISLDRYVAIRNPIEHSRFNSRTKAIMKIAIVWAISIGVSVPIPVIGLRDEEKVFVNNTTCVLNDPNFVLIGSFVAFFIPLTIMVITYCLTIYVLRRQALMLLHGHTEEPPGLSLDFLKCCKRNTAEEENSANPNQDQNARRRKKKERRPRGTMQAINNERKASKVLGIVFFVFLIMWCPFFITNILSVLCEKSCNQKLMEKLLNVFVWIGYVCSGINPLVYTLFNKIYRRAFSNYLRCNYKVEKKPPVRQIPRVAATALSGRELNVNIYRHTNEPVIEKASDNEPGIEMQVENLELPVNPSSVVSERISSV
Assay: In vitro inhibition of [3H]-ligand binding to human 5-HT2C receptor
Settings: [3H]mesulergine, CHO cell membranes
Recorded Endpoint: Ki

Which Ki is reported for this compound? COc1c(OS(=O)(=O)O)cccc1C(O)C1CCN(CCc2ccc(F)cc2)CC1 (stereo not shown) > 1 µM
